Subject Of Test: T1, GST-NeDLG PDZ domain 3 (Mus musculus (Mouse)), P70175
T1 chain: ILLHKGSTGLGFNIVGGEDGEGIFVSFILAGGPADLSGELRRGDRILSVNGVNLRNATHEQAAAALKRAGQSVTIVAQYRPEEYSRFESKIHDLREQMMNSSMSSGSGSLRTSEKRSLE
Protocol Description: G' assay; also: key of the grades not given here

Binder: TFAAGFNSTGLPHSTTRV (modifications not checked) [Neuroligin]
Classification: 1 A450 class
//
Binder: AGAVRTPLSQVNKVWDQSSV (modifications not checked) [CITRON protein]
Classification: 3 A450 class
//
Binder: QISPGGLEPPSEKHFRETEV (modifications not checked) [TAX]
Classification: 5 A450 class
//
Binder: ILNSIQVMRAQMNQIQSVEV (modifications not checked) [ephrin B2]
Classification: 1 A450 class
